system: M14; test: NCI tumour cell line growth inhibition, 48 h
The source made the active and inactive calls. No stated cut-off is given here; in the data, active = GI50 up to about 1.1 µM and inactive = higher.
Pick one: active, inactive

Outcome? O=C1CCCCCCCCCCC(=O)N2CCOCCOCCN1Cc1cccc(n1)C2
inactive

For this compound, state the assay outcome: Cn1c(-c2ccco2)ccc1-c1ccc(C=O)o1
inactive

Just curious, what result did N#Cc1ccc(C(O)C(F)(F)c2nc3ccccc3o2)cc1 (configuration not stated) get here?
inactive

Which outcome was assigned to CC1(C)CCCC2CC2CCC(C)(C)C1=O (configuration not stated) in this test?
inactive

// return assay outcome for Cc1nc(C(N)=S)sc1C(=O)C/C(=N/N)C(=O)Nc1ccc(Cl)cc1
inactive

Name the outcome recorded for CC(=O)OC12c3ccccc3-c3ccccc3C1C(C(=O)O)C2(Cl)C(=O)O (configuration not stated) in the assay.
inactive

Per the records of this test, what outcome belongs to COc1cc(C2c3cc4c(cc3[C@@H](Nc3ccc(N(C)C)cc3)[C@H]3COC(=O)C23)OCO4)cc(OC)c1O (some centres not stated) ?
active

Dear colleague, could you share the recorded outcome for COC(=O)CCC(=O)C(CC(=O)OC)C(=O)CCC(=O)NCCc1ccccc1 (configuration not stated) when you have a moment?
inactive

Name the outcome recorded for CCCCCC(=O)OC[n+]1ccc2c(C)c3[nH]c4ccccc4c3c(C)c2c1 in the assay.
inactive

Check the results log: what was the call for O=C(CCN1CCCCC1)Nc1ccc2c(c1)C(=O)c1ccc(NC(=O)CCN3CCCCC3)cc1C2=O ?
inactive

// param item: COc1ccccc1/C=C\c1cnnc2ccccc12 ; yields the recorded call
inactive

GET /call?item= CNc1ccccc1S(=O)(=O)c1ccccc1[N+](=O)[O-] returns the recorded outcome of this test.
inactive

Please share the test call associated with CC(=O)Nc1cc2ccc(=O)oc2cc1Cl .
inactive

I would be grateful if you could indicate the recorded call for CO/C(N)=C(C#N)/N=C/c1ccsc1 .
inactive

Status in this test for COc1ccccc1NC(=S)N/N=C1\C(=O)Nc2ccccc21 ?
inactive

Check the results log: what was the call for N#CCCN(C1=NN(C(=O)CC(=O)Nc2ccc(Cl)cc2)C(c2ccccc2)C1)c1ccc(Cl)cc1 (configuration not stated) ?
inactive

Lab log entry: CC(=O)NNC(=O)C1CCCCN1 (configuration not stated) — outcome as called in the assay?
inactive

Which outcome did this test record for the compound CC1CC#CCOC(=O)CCCC1=O (configuration not stated) ?
inactive

Answer briefly: the call reported for CC(C)(Oc1ccc(C(=O)c2ccc(Cl)cc2)cc1Cl)C(=O)Nc1c(Cl)cccc1Cl in this assay.
inactive

Please indicate how the test categorized COC(=O)C1CCC(N2C(=O)CCC2C(=O)OC)=N1 (configuration not stated) .
inactive

What outcome does the record of this test show for CN(C(=O)Cc1cc(Cl)c(Cl)cc1N=C=S)[C@H]1CCCC[C@@H]1N1CCCC1 ?
inactive

So what was the verdict on CC1(C)OC(COP2OCCO2)[C@H](COP2OCCO2)O1 (some centres not stated) in this test?
inactive

Which outcome was entered for the compound O=C1c2ccccc2C(=O)C2C1C1C(=O)c3ccccc3C(=O)C21 (configuration not stated) in this test?
inactive

Kindly provide the recorded test outcome for the following compound: CC1(C)CC[C@]2(C(=O)O)CC[C@]3(C)C(=CC[C@@H]4[C@@]5(C)C[C@H](O)[C@H](O)[C@@](C)(C(=O)O)[C@@H]5CC[C@]43C)[C@@H]2C1
inactive

Field: outcome | Entry: Cn1c2ccccc2n2c3ccccc3c(=S)c(C#N)c12
inactive

Could you check what this test reported for CCOC(=O)C(NC(=O)CC)(Nc1ccc(F)c(Cl)c1)C(F)(F)F (configuration not stated) ?
inactive

What did the test return for c1ccc(C2=C(c3ccccc3)P(c3ccccc3)C2)cc1 (configuration not stated) ?
inactive

Where do these numbers come from? They come from ChEMBL document CHEMBL1201862.
